# Test Method Notes: AUC in Sprague-Dawley rat at 60 mg/kg, po once daily for 14 days
# Assay type: ADME, organism-based
# Design: dose 60 mg/kg, route oral
# Experimental Setup: plasma
Measurement Kind: AUC at 336 h

> print(dat)
                            molecule.smiles  reported.measurement
1  CC[C@@H](Oc1cccc(Cn2c(C)c(C(=O)c3ccc(Cl)cc3)c3ccc(OC(F)(F)F)cc32)c1)C(=O)O               40 µM·h

###

# Target Or System: Cytochrome P450 2D6 (Homo sapiens, UniProt P10635)
# Sequence (P10635 whole entry): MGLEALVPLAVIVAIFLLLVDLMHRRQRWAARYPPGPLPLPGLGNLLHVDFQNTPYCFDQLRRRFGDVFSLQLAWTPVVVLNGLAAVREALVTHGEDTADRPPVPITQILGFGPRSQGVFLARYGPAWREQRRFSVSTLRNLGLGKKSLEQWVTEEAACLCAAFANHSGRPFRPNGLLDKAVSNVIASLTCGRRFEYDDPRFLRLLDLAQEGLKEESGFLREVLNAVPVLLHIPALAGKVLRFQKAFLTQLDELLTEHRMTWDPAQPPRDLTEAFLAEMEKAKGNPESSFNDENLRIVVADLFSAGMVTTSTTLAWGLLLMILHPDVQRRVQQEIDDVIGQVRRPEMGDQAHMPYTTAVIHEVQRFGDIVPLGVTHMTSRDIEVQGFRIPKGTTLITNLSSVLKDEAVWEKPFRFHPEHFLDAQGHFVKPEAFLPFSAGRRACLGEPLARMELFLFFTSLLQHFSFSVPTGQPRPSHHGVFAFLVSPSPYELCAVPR
pIC50: −log10 of the molar value.
Measurement Kind: pIC50

> print(dat)
                            molecule.smiles  measurement.kind  reported.measurement
1  CC[C@@H](Oc1cccc(Cn2c(C)c(C(=O)c3ccc(Cl)cc3)c3ccc(OC(F)(F)F)cc32)c1)C(=O)O             pIC50                  5.15

// data source = ChEMBL document CHEMBL1158459
